Please consider the recorded CYP3A4 AC50 (half-maximal activity concentration) for CYP3A4 (Homo sapiens) in what follows.

Answered cases to consult:
> print(dat)
                                   compound                observed
1             O=S(=O)(c1ccccc1)c1ccc(Cl)cc1                Inactive
2                     Oc1cc(Cl)c(Cl)c(Cl)c1  Inconclusive inhibitor
3                        O=c1[nH]sc2ccccc12  Inconclusive inhibitor
4  CCNc1nc(NC(C)CC)nc(OC)n1 (stereo not shown)                Inactive
5  O=[N+]([O-])c1cccc2cccc([N+](=O)[O-])c12  Inconclusive inhibitor

Parameter requested: CYP3A4 AC50 (half-maximal activity concentration). Apply to each item below.
1. O=[N+]([O-])c1ccc2c3c(cccc13)CC2
2. Cc1cc(=O)oc2cc(O)ccc12
3. CCCC(C)c1ccccc1O (stereo not shown)
4. Oc1cc(Cl)ccc1Cl

Inconclusive inhibitor
Inactive
Inactive
Inactive

Requested read-out: CYP3A4 AC50 (half-maximal activity concentration). Entry: `Cc1cc(C)nc(NS(=O)(=O)c2ccc(N)cc2)n1`
Inactive

----------
Please consider the recorded CYP2D6 AC50 (half-maximal activity concentration) for human CYP2D6 (Homo sapiens) in what follows.

Answered cases to consult:
> print(dat)
                                   compound            target.under.test                observed
1  CCNS(=O)(=O)c1ccc(C)cc1 [N-Ethyl-4-methylbenzenesulfonamide]  human CYP2D6 (Homo sapiens)  Inconclusive inhibitor
2  CN(CC1(C)CCCO1)S(=O)(=O)c1ccc(Cl)c(S(N)(=O)=O)c1 (stereo not shown) [Mefruside]  human CYP2D6 (Homo sapiens)                Inactive
3  COC(=O)c1ccc(C(=O)OC)cc1 [Dimethyl terephthalate]  human CYP2D6 (Homo sapiens)                Inactive
4  C[C@]12CC[C@H]3[C@@H](CCC4=CC(=O)CC[C@@]43C)[C@@H]1CC[C@@H]2C(=O)O  human CYP2D6 (Homo sapiens)                Inactive
5           C=C(C)C(=O)OCC[N+](C)(C)C.[Cl-]  human CYP2D6 (Homo sapiens)                Inactive

Parameter requested: CYP2D6 AC50 (half-maximal activity concentration). Apply to each item below.
1. O=[N+]([O-])c1ccc(O)cc1C(F)(F)F
2. Nc1c(Br)cc([N+](=O)[O-])cc1Br
3. CSc1nc(NC(C)C)nc(NC(C)C)n1
4. Clc1cc(Cl)c(-c2c(Cl)c(Cl)cc(Cl)c2Cl)cc1Cl
5. O=C(OCCOCCOC(=O)c1ccccc1)c1ccccc1 [Diethylene glycol dibenzoate]

Inconclusive inhibitor
Inactive
Inactive
Inactive
Inactive

----------
- target_under_test: human CYP2C19 (Homo sapiens, UniProt P33261)
- Sequence (P33261 whole entry): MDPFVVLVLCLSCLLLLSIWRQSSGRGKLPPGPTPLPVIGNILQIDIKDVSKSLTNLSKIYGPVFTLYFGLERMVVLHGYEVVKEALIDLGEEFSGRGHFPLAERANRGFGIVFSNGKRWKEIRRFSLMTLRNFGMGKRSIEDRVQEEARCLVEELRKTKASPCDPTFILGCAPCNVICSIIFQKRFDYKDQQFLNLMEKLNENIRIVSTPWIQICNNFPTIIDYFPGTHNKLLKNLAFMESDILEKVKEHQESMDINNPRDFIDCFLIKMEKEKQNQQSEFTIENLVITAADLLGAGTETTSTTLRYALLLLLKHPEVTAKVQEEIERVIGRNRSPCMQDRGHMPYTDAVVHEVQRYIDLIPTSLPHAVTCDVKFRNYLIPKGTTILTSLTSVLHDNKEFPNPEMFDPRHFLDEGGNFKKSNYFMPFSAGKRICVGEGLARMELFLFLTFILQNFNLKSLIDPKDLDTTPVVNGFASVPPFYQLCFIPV
Label Fulfilled when IC50 < 20 µM; otherwise Not fulfilled.

As a guide, the following entries are already answered.
compound	target_under_test	class_name
CCOc1cc(OCC)c(C(C)=O)cc1OCC [2,4,5-Triethoxyacetophenone]	human CYP2C19 (Homo sapiens, UniProt P33261)	Not fulfilled
CC(=O)OC1(c2ccccc2)CCN(CCc2ccccc2)CC1	human CYP2C19 (Homo sapiens, UniProt P33261)	Not fulfilled
Cc1cc(N=Nc2ccccc2C)ccc1N [2-Amino-5-azotoluene]	human CYP2C19 (Homo sapiens, UniProt P33261)	Fulfilled
CCC(COC(=O)c1cc(OC)c(OC)c(OC)c1)(c1ccccc1)N(C)C.O=C(O)/C=C\C(=O)O (stereo not shown) [Trimebutine maleate]	human CYP2C19 (Homo sapiens, UniProt P33261)	Not fulfilled
Cl.Clc1ccc(Cn2c(CN3CCCC3)nc3ccccc32)cc1 [Clemizole hydrochloride]	human CYP2C19 (Homo sapiens, UniProt P33261)	Fulfilled
N#Cc1cc2ccccc2c2ccccc12 [9-Cyanophenanthrene]	human CYP2C19 (Homo sapiens, UniProt P33261)	Not fulfilled
CCCN(CCC)CCc1c[nH]c2ccccc12.Cl [N,N-Dipropyltryptamine hydrochloride]	human CYP2C19 (Homo sapiens, UniProt P33261)	Not fulfilled
CCCCCCCCCCCCCCCCn1cc[n+](C)c1.[Cl-] [1-Hexadecyl-3-methylimidazolium chloride]	human CYP2C19 (Homo sapiens, UniProt P33261)	Not fulfilled
C=CC(=O)OCC(CO)(COCC(COC(=O)C=C)(COC(=O)C=C)COC(=O)C=C)COC(=O)C=C [Dipentaerythritol pentaacrylate]	human CYP2C19 (Homo sapiens, UniProt P33261)	Fulfilled
C[C@@H]1C[C@H]2[C@@H]3CCC4=CC(=O)C=C[C@]4(C)[C@@]3(F)[C@@H](O)C[C@]2(C)[C@@]1(O)C(=O)COC(=O)c1ccncc1 [Dexamethasone isonicotinate]	human CYP2C19 (Homo sapiens, UniProt P33261)	Not fulfilled

I'd appreciate it if you could check whether COP(=S)(NC(C)C)Oc1ccc(C)cc1[N+](=O)[O-] (stereo not shown) [Amiprofos-methyl] has IC50 smaller than 20 µM.
Fulfilled

I'd appreciate it if you could check whether COC(=O)c1cncn1C(C)c1ccccc1.Cl (stereo not shown) [Metomidate hydrochloride] has IC50 smaller than 20 µM.
Fulfilled

I'd appreciate it if you could check whether CC(=O)O.CC(C)c1ccc2c(c1)CC[C@H]1[C@](C)(CN)CCC[C@]21C [Dehydroabietylamine acetate] has IC50 smaller than 20 µM.
Fulfilled

I'd appreciate it if you could check whether CCOC(=O)c1c(C)n(C)c2ccc(O)cc12 [Mecarbinate] has IC50 smaller than 20 µM.
Fulfilled

I'd appreciate it if you could check whether NNc1nc(-c2ccccc2)cs1 [2-Hydrazino-4-phenylthiazole] has IC50 smaller than 20 µM.
Fulfilled

I'd appreciate it if you could check whether [Cl][Hg][Cl] [Mercuric chloride] has IC50 smaller than 20 µM.
Fulfilled

I'd appreciate it if you could check whether [Cl][Bi]([Cl])([c]1ccccc1)([c]1ccccc1)[c]1ccccc1 [Triphenylbismuthine dichloride] has IC50 smaller than 20 µM.
Fulfilled
